# Lookup of reported EC50 keyed by entry
system-name: Short transient receptor potential channel 4 (Mus musculus)
Sequence (Q9QUQ5 whole entry): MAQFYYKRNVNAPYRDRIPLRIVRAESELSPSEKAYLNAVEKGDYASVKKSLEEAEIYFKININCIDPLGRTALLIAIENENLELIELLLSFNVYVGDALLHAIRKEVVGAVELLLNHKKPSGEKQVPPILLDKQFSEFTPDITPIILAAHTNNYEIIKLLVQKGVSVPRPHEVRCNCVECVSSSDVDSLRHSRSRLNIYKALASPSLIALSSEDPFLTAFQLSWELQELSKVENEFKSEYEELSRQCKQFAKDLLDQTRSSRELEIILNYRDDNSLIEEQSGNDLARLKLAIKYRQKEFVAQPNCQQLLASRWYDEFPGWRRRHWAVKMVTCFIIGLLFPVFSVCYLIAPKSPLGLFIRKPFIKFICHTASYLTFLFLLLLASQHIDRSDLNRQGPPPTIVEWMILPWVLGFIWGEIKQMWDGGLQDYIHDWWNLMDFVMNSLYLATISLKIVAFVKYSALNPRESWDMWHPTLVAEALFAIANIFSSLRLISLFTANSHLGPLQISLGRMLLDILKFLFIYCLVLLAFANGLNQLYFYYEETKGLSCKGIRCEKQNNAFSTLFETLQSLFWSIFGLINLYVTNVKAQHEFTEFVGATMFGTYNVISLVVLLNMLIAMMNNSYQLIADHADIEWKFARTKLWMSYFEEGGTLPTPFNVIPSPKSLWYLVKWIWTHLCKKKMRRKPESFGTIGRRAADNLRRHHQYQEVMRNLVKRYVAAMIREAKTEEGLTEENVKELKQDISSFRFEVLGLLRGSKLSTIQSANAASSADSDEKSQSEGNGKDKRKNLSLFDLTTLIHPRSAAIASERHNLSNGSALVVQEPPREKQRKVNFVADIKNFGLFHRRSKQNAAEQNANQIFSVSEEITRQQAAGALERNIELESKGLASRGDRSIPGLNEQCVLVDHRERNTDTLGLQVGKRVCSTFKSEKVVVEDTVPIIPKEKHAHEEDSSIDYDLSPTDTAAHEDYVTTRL
test-summary: mouse TRPC4 channel inhibitors, dose response, cell-based, HEK293 TRPC4/mu-opioid, Fluo-4 calcium (AID 434942);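 also: potency of inhibitors blocking the TRPC4 calcium response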
Format: functional
Calls of active or inactive are those of the source.

{"molecule": "C=C(C)Cn1c(SCC)nc2ccccc2c1=O", "EC50": "4.73 µM (active)"}
{"molecule": "CCOc1ccccc1N(CC(=O)N1CCOCC1)S(=O)(=O)c1ccccc1", "EC50": "6.68 µM (active)"}
{"molecule": "CC(=O)C1=C(S(=O)(=O)c2ccc(C)cc2)CS(=O)(=O)C1", "EC50": "4.73 µM (active)"}
{"molecule": "COc1cc(CNCCc2ccc(F)cc2)ccc1OCc1ccc(Cl)nc1", "EC50": "1.88 µM (active)"}
{"molecule": "OCC1(Cc2ccccc2)CCCN(Cc2cnn(-c3ccccc3)c2)C1 (stereo not drawn)", "EC50": "4.22 µM (active)"}
{"molecule": "COc1ccc(C2C(C(C)=O)=C(O)C(=O)N2c2ccc(Br)cc2)cc1 (stereo not drawn)", "EC50": "0.668 µM (active)"}
{"molecule": "COc1ccccc1CNCC(c1ccccc1)c1ccccc1", "EC50": "4.73 µM (active)"}
{"molecule": "Cn1c(-c2ccccc2)cnc1NCc1ccc(F)cc1", "EC50": "1.88 µM (active)"}

----------
# Lookup of reported Absolute IC50 (CHOP) keyed by entry
system-name: DNA damage-inducible transcript 3 protein (Mus musculus, UniProt P35639)
Sequence (P35639 whole entry): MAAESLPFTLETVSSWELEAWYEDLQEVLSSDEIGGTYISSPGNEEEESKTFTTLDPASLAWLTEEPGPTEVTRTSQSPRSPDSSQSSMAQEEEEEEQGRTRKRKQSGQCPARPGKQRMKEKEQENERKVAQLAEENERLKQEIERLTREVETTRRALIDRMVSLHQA
Type: functional, Cricetulus griseus

{"mol": "O=C(N/N=C/c1ccccc1Cl)c1[nH]nc2c1CCCC2", "Absolute IC50 (CHOP)": "10 µM"}
{"mol": "Cc1ccc(-c2nn(C)c(=O)c3ccccc23)cc1CNC(=O)Cn1nc(-c2ccccc2)c2ccccc2c1=O", "Absolute IC50 (CHOP)": "10 µM"}
{"mol": "CC(=O)C1=C(S(=O)(=O)c2ccc(C)cc2)CS(=O)(=O)C1", "Absolute IC50 (CHOP)": "10 µM"}
{"mol": "CCOc1ccc(/C=C/C2=Cc3c(sc(NC(=O)CSc4n[nH]c(N)n4)c3C#N)C(C)(C)C2)cc1", "Absolute IC50 (CHOP)": "< 10 µM"}

----------
system-name: Luciferin 4-monooxygenase (Photinus pyralis, UniProt P08659)
Sequence (P08659 whole entry): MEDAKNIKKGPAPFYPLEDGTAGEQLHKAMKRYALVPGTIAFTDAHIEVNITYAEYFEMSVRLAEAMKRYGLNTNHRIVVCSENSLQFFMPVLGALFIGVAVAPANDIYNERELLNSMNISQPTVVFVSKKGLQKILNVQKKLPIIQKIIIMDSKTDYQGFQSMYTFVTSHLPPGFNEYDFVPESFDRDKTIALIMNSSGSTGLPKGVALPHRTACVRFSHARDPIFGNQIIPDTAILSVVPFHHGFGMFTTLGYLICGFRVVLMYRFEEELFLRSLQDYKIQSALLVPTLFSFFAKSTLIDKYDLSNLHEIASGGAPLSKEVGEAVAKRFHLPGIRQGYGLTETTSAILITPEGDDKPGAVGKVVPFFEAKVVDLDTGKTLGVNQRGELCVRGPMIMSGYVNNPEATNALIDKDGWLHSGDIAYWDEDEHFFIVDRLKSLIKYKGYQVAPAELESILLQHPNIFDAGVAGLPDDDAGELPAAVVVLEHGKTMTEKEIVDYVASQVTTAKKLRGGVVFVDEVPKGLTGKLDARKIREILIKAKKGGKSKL
test-summary: firefly luciferase enzyme inhibitors, dose response, biochemical, luminescence (AID 1891)
Active and inactive are the calls of the source.
reported-property: EC50

{"compound": "c1csc(-c2nn3c(Cn4nnc5ccccc54)nnc3s2)c1", "value": "> 112 µM (not active)"}
{"compound": "Oc1c(N=NC(S)=Nc2ccccc2F)c2ccccc2n1Cc1cccc(Cl)c1", "value": "> 112 µM (not active)"}
{"compound": "CCn1c(SCC(=O)N2CCCC(C)C2)nnc1-c1ccco1 (configuration not stated)", "value": "> 112 µM (not active)"}
{"compound": "CCN(C(=O)COC(=O)c1cc(-c2cccs2)nc2ccccc12)C1CCS(=O)(=O)C1 (configuration not stated)", "value": "> 112 µM (not active)"}
{"compound": "CSc1nnc(N2C(=O)C(O)=C(C(=O)c3ccco3)C2c2ccc(F)cc2)s1 (configuration not stated)", "value": "> 112 µM (not active)"}
{"compound": "COc1cccc(OCCNC(=O)c2cccc(OC)c2)c1", "value": "> 112 µM (not active)"}
{"compound": "COC(=O)C(Cc1ccc(O)cc1)NC(=O)C12CC3CC(CC(C3)C1)C2 (configuration not stated)", "value": "> 112 µM (not active)"}
{"compound": "O=C1/C(=N\\c2ccc(O)cc2)C=C(O)c2ccccc21", "value": "3.81 µM (active)"}
{"compound": "N/C(=N\\N=C\\c1ccc(O)c(O)c1)c1nonc1N", "value": "1.67 µM (active)"}
{"compound": "Cc1ccc(NC(=O)c2cc(S(=O)(=O)N3CCOCC3)cn2C)c(C)c1", "value": "> 112 µM (not active)"}
{"compound": "O=C1N/C(=C\\c2ccc(O)cc2)C(=O)c2ccccc21", "value": "0.661 µM (active)"}
{"compound": "CCCCc1c(O)nc(SCC(=O)N2CCOCC2)nc1O", "value": "> 112 µM (not active)"}

----------
system-name: Beta-2 adrenergic receptor (Homo sapiens, UniProt P07550)
Sequence (P07550 whole entry): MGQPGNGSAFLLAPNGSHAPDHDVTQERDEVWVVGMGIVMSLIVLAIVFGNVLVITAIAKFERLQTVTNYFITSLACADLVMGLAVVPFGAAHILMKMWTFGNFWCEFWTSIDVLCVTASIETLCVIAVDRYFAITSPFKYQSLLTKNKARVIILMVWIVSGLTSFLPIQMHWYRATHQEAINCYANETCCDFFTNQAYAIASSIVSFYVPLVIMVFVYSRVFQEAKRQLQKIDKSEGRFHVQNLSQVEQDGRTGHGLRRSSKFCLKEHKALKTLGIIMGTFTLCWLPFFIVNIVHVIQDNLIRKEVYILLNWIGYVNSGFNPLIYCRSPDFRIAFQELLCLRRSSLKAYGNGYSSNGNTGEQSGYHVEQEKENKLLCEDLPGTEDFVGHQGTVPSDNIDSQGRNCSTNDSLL
test-summary: beta2AR agonists driving receptor internalization, dose response, cell-based, FAP fluorogen, flow cytometry, cherry pick 1 (AID 588763)
Assay type: functional
Activity calls are given as the source filed them.
Outcomes: active, inactive

{"mol": "N#Cc1cccc(NC(=O)COC(=O)c2ccccc2C(=O)c2ccc(Cl)c([N+](=O)[O-])c2)c1", "category-label": "inactive"}
{"mol": "CCOc1ccc(NC(=O)CNC(=O)c2nn(-c3ccc(OC)c(OC)c3)c(=O)c3ccccc23)cc1", "category-label": "active"}
{"mol": "CCOC(=O)N1CCN(C(=O)CN(C)S(=O)(=O)c2ccc(Cl)cc2)CC1", "category-label": "active"}
{"mol": "COC(=O)C1=C(c2cccc(OCc3ccccc3)c2)C[C@@H]2CC[C@H]1N2C(=O)NCc1cccc(F)c1", "category-label": "active"}
{"mol": "Cc1ccc(SCC(=O)Nc2ccc(-c3nc4ccccc4[nH]3)cc2)cc1", "category-label": "active"}

----------
system-name: Cytochrome P450 2C19 (Homo sapiens, UniProt P33261)
Sequence (P33261 whole entry): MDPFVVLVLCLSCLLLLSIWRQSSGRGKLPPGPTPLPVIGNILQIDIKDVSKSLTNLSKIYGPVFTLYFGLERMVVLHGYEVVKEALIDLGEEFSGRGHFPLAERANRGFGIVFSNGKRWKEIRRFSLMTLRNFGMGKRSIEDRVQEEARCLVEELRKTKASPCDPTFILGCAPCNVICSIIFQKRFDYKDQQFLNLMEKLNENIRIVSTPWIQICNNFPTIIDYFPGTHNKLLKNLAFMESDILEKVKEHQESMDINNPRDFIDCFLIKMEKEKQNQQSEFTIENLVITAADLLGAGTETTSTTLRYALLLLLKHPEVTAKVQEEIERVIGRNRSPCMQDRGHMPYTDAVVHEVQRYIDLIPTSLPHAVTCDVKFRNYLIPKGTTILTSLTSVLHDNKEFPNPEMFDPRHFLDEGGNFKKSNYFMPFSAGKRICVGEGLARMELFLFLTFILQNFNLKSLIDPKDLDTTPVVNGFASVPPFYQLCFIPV
test-summary: Cytochrome panel assay with activity outcomes. Panel member name: p450-cyp2c19 Compounds with AC50 equal or less than 10 uM are considered active
Type: functional
cond: read-out: AC50

{"compound": "CCC(C)[C@H](NC(=O)Nc1ccc(Oc2ccccc2)cc1)C(=O)O (stereo partly drawn)", "AC50": "5.62 µM (inconclusive)"}
{"compound": "N#Cc1ccc(Oc2nc(C(N)=O)cc(-c3ccccc3)n2)cc1", "AC50": "25.1 µM (inconclusive)"}
{"compound": "COC(=O)[C@@]1(Cc2ccc(F)cc2)[C@@H]2[C@@H](CC(=O)[C@H]2CC(=O)C(=O)N2CCCC2)CN1C(=O)c1ccccc1", "AC50": "15.8 µM (inconclusive)"}

----------
system-name: UniProt Q12809
Sequence (Q12809 whole entry): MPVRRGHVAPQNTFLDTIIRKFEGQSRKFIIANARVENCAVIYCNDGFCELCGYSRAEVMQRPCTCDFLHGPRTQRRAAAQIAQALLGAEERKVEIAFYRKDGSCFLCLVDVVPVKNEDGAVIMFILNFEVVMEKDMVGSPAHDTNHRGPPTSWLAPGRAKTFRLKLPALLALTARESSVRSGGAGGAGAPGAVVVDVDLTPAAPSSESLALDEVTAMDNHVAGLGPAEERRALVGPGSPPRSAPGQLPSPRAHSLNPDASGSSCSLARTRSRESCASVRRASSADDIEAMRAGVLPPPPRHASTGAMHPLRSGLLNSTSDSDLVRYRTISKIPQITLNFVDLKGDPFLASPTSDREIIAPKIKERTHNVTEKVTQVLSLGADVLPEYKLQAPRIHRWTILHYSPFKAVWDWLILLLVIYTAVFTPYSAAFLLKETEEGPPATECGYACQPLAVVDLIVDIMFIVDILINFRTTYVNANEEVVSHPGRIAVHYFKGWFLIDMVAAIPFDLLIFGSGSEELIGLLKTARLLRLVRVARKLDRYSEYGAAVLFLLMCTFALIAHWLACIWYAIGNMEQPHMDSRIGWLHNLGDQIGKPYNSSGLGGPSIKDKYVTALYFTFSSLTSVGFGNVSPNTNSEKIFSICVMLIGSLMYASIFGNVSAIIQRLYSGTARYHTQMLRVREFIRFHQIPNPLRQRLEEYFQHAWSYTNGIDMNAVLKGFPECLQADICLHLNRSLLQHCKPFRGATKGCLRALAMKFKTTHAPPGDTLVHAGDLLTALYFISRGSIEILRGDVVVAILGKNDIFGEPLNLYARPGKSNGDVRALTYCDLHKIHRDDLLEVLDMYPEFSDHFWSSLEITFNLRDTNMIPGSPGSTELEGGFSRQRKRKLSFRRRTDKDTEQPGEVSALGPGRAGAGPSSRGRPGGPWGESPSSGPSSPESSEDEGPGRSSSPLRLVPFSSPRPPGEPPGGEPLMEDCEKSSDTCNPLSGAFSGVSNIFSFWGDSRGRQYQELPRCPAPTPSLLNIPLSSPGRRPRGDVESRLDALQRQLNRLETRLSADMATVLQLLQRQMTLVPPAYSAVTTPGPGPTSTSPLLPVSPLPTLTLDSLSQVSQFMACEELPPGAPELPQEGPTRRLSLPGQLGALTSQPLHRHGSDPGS
cond: Potency

{"mol": "CN(C)c1ccc(/C=C2\\C(=O)Nc3ccccc32)cc1", "AC50": "14.1 µM (inconclusive)"}
{"mol": "Cc1cc([N+](=O)[O-])ccc1N", "AC50": "17.8 µM (inconclusive)"}
{"mol": "COC(=O)c1c(C)[nH]c(C)c1C(=O)c1ccccc1Cc1ccccc1", "AC50": "35.5 µM (inconclusive)"}
{"mol": "CCCCCOC(=O)c1ccccc1C(=O)OCCCCC", "AC50": "39.8 µM (inconclusive)"}
{"mol": "CC(=O)Nc1ccc(C(=O)CCl)cc1", "AC50": "28.2 µM (inconclusive)"}

----------
system-name: Trace amine-associated receptor 1 (Homo sapiens, UniProt Q96RJ0)
Sequence (Q96RJ0 whole entry): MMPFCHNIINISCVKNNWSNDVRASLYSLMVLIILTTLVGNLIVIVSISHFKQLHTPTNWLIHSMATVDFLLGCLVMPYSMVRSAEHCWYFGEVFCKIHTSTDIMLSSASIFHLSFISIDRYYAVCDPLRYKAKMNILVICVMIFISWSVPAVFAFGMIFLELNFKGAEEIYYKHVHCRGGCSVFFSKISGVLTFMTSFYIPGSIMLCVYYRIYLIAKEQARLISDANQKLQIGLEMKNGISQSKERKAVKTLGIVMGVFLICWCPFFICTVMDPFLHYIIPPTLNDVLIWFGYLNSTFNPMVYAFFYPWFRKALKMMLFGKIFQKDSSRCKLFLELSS
test-summary: Fluorescence-based cell-based high throughput dose response assay to identify agonists of the human trace amine associated receptor 1 (TAAR1).
Format: functional
Active and inactive are the calls of the source.
reported-property: EC50

{"compound": "O=C(NCN1CCc2ccccc2C1)c1cnccn1", "reported-property": "EC50", "value": "2.14 µM (active)"}
{"compound": "O=C(N[C@H](C(=O)N1CCC[C@H]1C(=O)NCCc1ccccc1Cl)c1ccccc1)c1ccco1", "reported-property": "EC50", "value": "10.3 µM (inactive)"}
{"compound": "O=C(CSC(=S)N1CCCC1)NCCc1ccccc1", "reported-property": "EC50", "value": "1.96 µM (active)"}
{"compound": "COc1ccccc1N1CN(CCc2ccccc2)CN=C1S", "reported-property": "EC50", "value": "1.28 µM (active)"}
{"compound": "Cc1ccc(Nc2nc(N)c3ccccc3n2)cc1C", "reported-property": "EC50", "value": "4.53 µM (active)"}
{"compound": "O=C(CC1C(=O)NCCN1CCCc1ccccc1)NCCc1ccccc1Cl (stereo unspecified)", "reported-property": "EC50", "value": "1.51 µM (active)"}

----------
system-name: Corticotropin-releasing factor receptor 2/Corticotropin-releasing factor-binding protein (Homo sapiens, UniProt P24387+Q13324)
Sequence (Q13324 whole entry): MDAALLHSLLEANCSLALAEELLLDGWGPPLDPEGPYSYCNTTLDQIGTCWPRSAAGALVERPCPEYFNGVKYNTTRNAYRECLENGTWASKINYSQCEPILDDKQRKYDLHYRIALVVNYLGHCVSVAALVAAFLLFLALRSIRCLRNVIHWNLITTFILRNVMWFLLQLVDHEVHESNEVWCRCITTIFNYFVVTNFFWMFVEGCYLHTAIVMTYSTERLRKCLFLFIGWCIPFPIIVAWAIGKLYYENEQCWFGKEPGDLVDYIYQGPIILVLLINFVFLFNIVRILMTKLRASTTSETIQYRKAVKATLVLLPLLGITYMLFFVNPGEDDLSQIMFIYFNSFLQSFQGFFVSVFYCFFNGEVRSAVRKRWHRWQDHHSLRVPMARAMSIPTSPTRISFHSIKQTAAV
Sequence (P24387 whole entry): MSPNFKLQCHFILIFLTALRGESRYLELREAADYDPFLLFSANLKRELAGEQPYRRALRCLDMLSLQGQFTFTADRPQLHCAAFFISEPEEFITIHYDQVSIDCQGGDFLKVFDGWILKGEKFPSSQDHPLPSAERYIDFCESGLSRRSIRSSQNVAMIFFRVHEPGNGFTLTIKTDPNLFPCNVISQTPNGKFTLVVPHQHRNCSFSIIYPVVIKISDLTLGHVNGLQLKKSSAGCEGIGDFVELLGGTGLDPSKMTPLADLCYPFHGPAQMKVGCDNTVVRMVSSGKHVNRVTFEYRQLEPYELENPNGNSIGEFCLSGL
test-summary: Dose Response confirmation of uHTS hits for small molecule antagonists of the CRF-binding protein and CRF-R2 receptor complex.
Assay type: functional
cond: read-out: IC50_Mean
The source made the active and inactive calls.
Outcomes: active, inactive

{"compound": "C=C1C(C(=O)Nc2ccccc2)C1C(=O)Nc1ccccc1 (stereo unspecified)", "category-label": "inactive"}
{"compound": "CCCNS(=O)(=O)c1cccc(C(=O)NC2CCCc3ccccc32)c1 (stereo unspecified)", "category-label": "inactive"}
{"compound": "CCOc1ccccc1NC(=O)COC(=O)C1COc2ccccc2O1 (stereo unspecified)", "category-label": "inactive"}
{"compound": "O=S(=O)(Nc1ccc2c(c1)CCC2)c1cccs1", "category-label": "inactive"}
{"compound": "Cc1nc2ccc(NS(=O)(=O)c3ccc(C)c(C)c3)cc2s1", "category-label": "inactive"}
{"compound": "CCNc1nc(NCC)n2c(SCc3ccc(F)cc3)nnc2n1", "category-label": "inactive"}
{"compound": "CCOC(=O)C1CCN(c2cc3c(cc2NC(=O)c2cc(OC)ccc2Br)n(C)c(=O)n3C)CC1", "category-label": "inactive"}
{"compound": "Cc1cccc(C)c1NC(=S)Nc1ccc(F)cc1", "category-label": "inactive"}
{"compound": "Cc1cc2oc(=O)cc(-c3ccccc3)c2c(C)c1-c1ccc(O)cc1", "category-label": "inactive"}
{"compound": "COc1ccc(S(=O)(=O)Nc2nc3ccccc3nc2NCC2CCCO2)cc1 (stereo unspecified)", "category-label": "inactive"}
{"compound": "Cc1ccc(C(=O)N/N=C(/CC(=O)c2cccs2)C(F)(F)F)cc1", "category-label": "active"}
{"compound": "O=C1NC(Cc2c[nH]c3ccccc23)C(=O)N1Cc1cccc2ccccc12 (stereo unspecified)", "category-label": "inactive"}
{"compound": "COC(=O)c1sccc1NS(=O)(=O)c1ccccc1", "category-label": "inactive"}
{"compound": "CCOc1ccc(/C=N/NC(=O)C(C)N(c2ccc(OC)cc2)S(C)(=O)=O)cc1OCC (stereo unspecified)", "category-label": "inactive"}
{"compound": "O=C(O)c1ccc(Cl)c(NC(=S)NC(=O)c2cccc(COc3ccccc3)c2)c1", "category-label": "active"}
{"compound": "CCCCOc1ccc(OC(=O)Nc2cc(Cl)ccc2OC)cc1", "category-label": "active"}

Cited source: ChEMBL document CHEMBL1201862
